Hello, the source for this data is paper PMC9841524, in case you need it.

# % of helicity induced by TFE per entry
# assay.procedure: CD spectroscopy, helicity;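 on % of helicity induced by TFE: share of the total helicity in TFE gained over the same peptide in PBS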
# Type: physicochemical
# run.parameters: increase in molar ellipticity at 222 nm in the presence of 50% TFE
# Method: The CD spectra of peptides were recorded using a Jasco J-1500 CD spectrophotometer (Jasco, Easton, MD) at 25 °C with a 1 mm path length cell. […] The mean residue molar ellipticity was calculated using the formula [drawing 3] where Ab222 is the absorbance observed at 222 nm, MRW is the mean residue molecular weight, C is the concentration in mg/mL, and L is the path length. […]
Where no end group is shown, it is not given here.
Write the numeric value and append its unit.

Worked examples, 2 substances total:
[
  {
    "substance": "RWLRRWLRWWRR-NH2 [8a]",
    "% of helicity induced by TFE": "55.65%"
  },
  {
    "substance": "KWAKKWWKWWKK-NH2 [6e]",
    "% of helicity induced by TFE": "56.74%"
  }
]

Pending substance:
Entry RWWRRAWAR-NH2 [3e] — recorded % of helicity induced by TFE = 48.63%

* * *

# MIC, MRSA (ATCC BAA-1556), CaCl2 per entry
# Test system: MRSA (ATCC BAA-1556)
# run.parameters: media with 2 mM CaCl2; three independent experiments in triplicate
Where no end group is shown, it is not given here.
Respond with the bare value in µg/mL.

Worked examples, 3 substances total:
[
  {
    "substance": "KWLKKWLKWWKK-NH2 [8b]",
    "value.reported": 6.2
  },
  {
    "substance": "RWLRRWLRWWRR-NH2 [8a]",
    "value.reported": 6.2
  },
  {
    "substance": "RWIRRWIRWWRR-NH2 [7a]",
    "value.reported": 6.2
  }
]

Pending substance:
Entry KWIKKWIKWWKK-NH2 [7b] — recorded MIC, MRSA (ATCC BAA-1556), CaCl2 = 12.5

* * *

# assay.procedure: CD spectroscopy, helicity
# Format: physicochemical
# Design: key: mean residue molar ellipticity, mdeg cm2/(dmol × res)
# run.parameters: difference to PBS; 50% TFE
Where no end group is shown, it is not given here.
measure: Δ[θ]222 induced by TFE
Enter a number only.

Worked examples, 8 substances total:
[
  {
    "substance": "KWAKKWWKWWKK-NH2 [6e]",
    "measure": "Δ[θ]222 induced by TFE",
    "value.reported": -10451
  },
  {
    "substance": "RWWRRAWAR-NH2 [3e]",
    "measure": "Δ[θ]222 induced by TFE",
    "value.reported": -3895
  },
  {
    "substance": "RWIRRWIRWWRR-NH2 [7a]",
    "measure": "Δ[θ]222 induced by TFE",
    "value.reported": -5734
  },
  {
    "substance": "RAWRAWWRRA-NH2 [4f]",
    "measure": "Δ[θ]222 induced by TFE",
    "value.reported": -3775
  },
  {
    "substance": "KWIKKWIKWWKK-NH2 [7b]",
    "measure": "Δ[θ]222 induced by TFE",
    "value.reported": -7784
  },
  {
    "substance": "Ac-KWIKKWIKWWKK-NH2 [7d]",
    "measure": "Δ[θ]222 induced by TFE",
    "value.reported": -7446
  },
  {
    "substance": "RWARRWARWWRR-NH2 [6a]",
    "measure": "Δ[θ]222 induced by TFE",
    "value.reported": -6608
  },
  {
    "substance": "KWLKKWLKWWKK-NH2 [8b]",
    "measure": "Δ[θ]222 induced by TFE",
    "value.reported": -9499
  }
]

Entry Ac-KWAKKWAKWWKK-NH2 [6d] — recorded Δ[θ]222 induced by TFE = -4968

Entry Ac-RWARRWARWWRR-NH2 [6c] — recorded Δ[θ]222 induced by TFE = -7332

Entry RWLRRWLRWWRR-NH2 [8a] — recorded Δ[θ]222 induced by TFE = -6017

* * *

# MIC, K. pneumoniae (ATCCBAA-1705) per entry
# System: K. pneumoniae (ATCCBAA-1705)
# assay.procedure: MIC, standard microtiter dilution (CLSI)
# Assay type: cell-based, Klebsiella pneumoniae
# run.parameters: value in parentheses (μM); broth microdilution (CLSI), CAMHB, 37 °C, 24 h
Where no end group is shown, it is not given here.
Respond with the bare value in µM.

Worked examples, 3 substances total:
[
  {
    "substance": "KWAKKWWKWWKK-NH2 [6e]",
    "measure": "MIC, K. pneumoniae (ATCCBAA-1705)",
    "value.reported": 27.96
  },
  {
    "substance": "KWIKKWIKWWKK-NH2 [7b]",
    "measure": "MIC, K. pneumoniae (ATCCBAA-1705)",
    "value.reported": 14.23
  },
  {
    "substance": "KWLKKWWKWWKK-NH2 [8e]",
    "measure": "MIC, K. pneumoniae (ATCCBAA-1705)",
    "value.reported": 13.66
  }
]

Entry Ac-RWLRRWLRWWR-NH2 [5f] — recorded MIC, K. pneumoniae (ATCCBAA-1705) = 27.61

Entry KWLKKWLKWWKK-NH2 [8b] — recorded MIC, K. pneumoniae (ATCCBAA-1705) = 3.53

Entry RWIRRWIRWWR-NH2 [5c] — recorded MIC, K. pneumoniae (ATCCBAA-1705) = 56.52

Entry Ac-KWLKKWLKWWKK-NH2 [8d] — recorded MIC, K. pneumoniae (ATCCBAA-1705) = 6.95

* * *

# [θ]222 mean residue molar ellipticity, PBS per entry
# assay.procedure: CD spectroscopy, helicity
# Type: physicochemical
# run.parameters: CD at 222 nm, 25 °C, phosphate buffer saline pH 7.0
Where no end group is shown, it is not given here.

Worked examples, 10 substances total:
[
  {
    "substance": "RWLRRWLRWWRR-NH2 [8a]",
    "value.reported": "-4794 mdeg cm2/(dmol × res)"
  },
  {
    "substance": "KWIKKWIKWWKK-NH2 [7b]",
    "value.reported": "-3016 mdeg cm2/(dmol × res)"
  },
  {
    "substance": "RWLRRWLRWWR-NH2 [5d]",
    "value.reported": "-4099 mdeg cm2/(dmol × res)"
  },
  {
    "substance": "Ac-KWIKKWIKWWKK-NH2 [7d]",
    "value.reported": "-3826 mdeg cm2/(dmol × res)"
  },
  {
    "substance": "RWWRRAWAR-NH2 [3e]",
    "value.reported": "-4113 mdeg cm2/(dmol × res)"
  },
  {
    "substance": "RWARRWARWWRR-NH2 [6a]",
    "value.reported": "-6737 mdeg cm2/(dmol × res)"
  },
  {
    "substance": "RWIRRWIRWWRR-NH2 [7a]",
    "value.reported": "-2471 mdeg cm2/(dmol × res)"
  },
  {
    "substance": "Ac-RWARRWARWWRR-NH2 [6c]",
    "value.reported": "-10947 mdeg cm2/(dmol × res)"
  },
  {
    "substance": "KWLKKWWKWWKK-NH2 [8e]",
    "value.reported": "-5411 mdeg cm2/(dmol × res)"
  },
  {
    "substance": "WRRWWRR-NH2 [1c]",
    "value.reported": "-2638 mdeg cm2/(dmol × res)"
  }
]

Pending substance:
Entry Ac-KWLKKWLKWWKK-NH2 [8d] — recorded [θ]222 mean residue molar ellipticity, PBS = -10222 mdeg cm2/(dmol × res)

* * *

# assay.procedure: CD spectroscopy, helicity
# Assay type: physicochemical
# run.parameters: CD at 222 nm, 25 °C, aqueous buffer containing 50% TFE
Where no end group is shown, it is not given here.
# [θ]222 mean residue molar ellipticity, TFE per entry

[
  {
    "substance": "RWLRRWLRWWR-NH2 [5d]",
    "value.reported": "-10148 mdeg cm2/(dmol × res)"
  }
]

Entry Ac-KWIKKWIKWWKK-NH2 [7d] — recorded [θ]222 mean residue molar ellipticity, TFE = -11272 mdeg cm2/(dmol × res)

Entry KWLKKWWKWWKK-NH2 [8e] — recorded [θ]222 mean residue molar ellipticity, TFE = -11148 mdeg cm2/(dmol × res)

Entry RWWRRWAR-NH2 [2a] — recorded [θ]222 mean residue molar ellipticity, TFE = -6217 mdeg cm2/(dmol × res)

Entry KWLKKWLKWWKK-NH2 [8b] — recorded [θ]222 mean residue molar ellipticity, TFE = -15887 mdeg cm2/(dmol × res)

* * *

# assay.procedure: CD spectroscopy, helicity
# Assay type: physicochemical
# run.parameters: CD at 222 nm, 25 °C, phosphate buffer saline pH 7.0
Where no end group is shown, it is not given here.
measure: [θ]222 mean residue molar ellipticity, PBS

Worked examples, 2 substances total:
[
  {
    "substance": "KWAKKWWKWWKK-NH2 [6e]",
    "value.reported": "-7968 mdeg cm2/(dmol × res)"
  },
  {
    "substance": "Ac-KWAKKWAKWWKK-NH2 [6d]",
    "value.reported": "-13464 mdeg cm2/(dmol × res)"
  }
]

Pending substance:
Entry Ac-RWLRRWLRWWRR-NH2 [8c] — recorded [θ]222 mean residue molar ellipticity, PBS = -8173 mdeg cm2/(dmol × res)
